The values you see were collected from PubChem BioAssay.

System: Fibroblast growth factor 10 (Homo sapiens)
Procedure Text: FGF10 binders on small-molecule microarrays, primary screen, biochemical, small-molecule microarray, 635 nm fluorescence (AID 1102)
Experimental Conditions: FGF10 binding, fluorescence 635 nm, higher = more signal
Criterion: composite z-score meeting or surpassing 0.4. Met: 1.0. Not met: 0.0.

COC(=O)[C@H](C)NC(=O)CCC1CC(OC(=O)NCCc2ccc(F)cc2)CC2(CCCC(COC(=O)NCCc3ccccc3OC)O2)O1 (stereo not given in full)	1.0
CC(CCN1CCCc2nc(C)c(C)cc21)=NO[C@@H](C)c1cn([C@H](CO)Cc2ccccc2)nn1	1.0
COC(=O)[C@@H]1CC[C@H](C)[C@@H](c2ccc(C)cc2)N1C(=O)c1ccc(C=NOC[C@@H](O)[C@H]2O[C@@H]3OC(C)(C)O[C@@H]3[C@H]2O)cc1	1.0
COC(=O)[C@@H]1CC[C@H](C)[C@@H](c2ccc(C)cc2)N1C(=O)c1ccc(C=NOC[C@H]2O[C@H](c3ccccc3)C=C[C@@H]2Oc2ccc(OC)cc2)cc1	0.0
CCCCOC(OCCCC)C(O)CSc1ccc2ccccc2c1 (stereo not given)	0.0
C[C@@H]1CC[C@H]2C(=O)N3[C@@H](CC[C@@H](C)[C@@H]3c3ccc(Br)cc3)C(=O)N2[C@H]1c1ccc(Br)cc1	1.0
O=C1[C@H]2[C@H]3[C@H](O)[C@H](O)CC(=NO[C@@H]4O[C@H](CO)[C@@H](O)[C@H](O)[C@H]4O)[C@@H]3CC[C@H]2C(=O)N1C1CCCCC1	1.0
CON=C1c2cc(OC)ccc2O[C@H](c2cccc(OC)c2)[C@H]1O	1.0
CC(=O)OC[C@H]1O[C@H](CC=NO[C@@H](C)c2cn([C@H](CO)Cc3ccccc3)nn2)C=C[C@@H]1OC(C)=O	1.0
Cc1cc(C)c(-c2cc([C@H](C)ON=C[C@@H](C)[C@H](OCc3ccccc3)C(C)C)on2)c(C)c1	0.0
CCOC(=O)CCN1C(=O)[C@H]2[C@H]3[C@H](O)[C@H](O)CC(=NNC(=O)OCc4ccc(OC)cc4)[C@H]3CC[C@H]2C1=O	0.0
CC=CC1=C(CO)[C@H](O)[C@H]2O[C@H]2[C@@H]1O	1.0
CC(C)(C)N1C(=O)[C@H]2[C@@H]3C(=CC[C@H]2C1=O)C(=O)[C@H]1O[C@H]1[C@H]3O	0.0
CCOC(=O)[C@H](CC(C)C)NC(=O)CCC1CC(OC(=O)NCCc2ccc(F)cc2)CC2(CCCC(COC(=O)NCc3cccc4ccccc34)O2)O1 (stereo not given in full)	0.0
CC(CCN1CCc2nc(-c3ccccc3)c(-c3ccccc3)cc2C1)=NO[C@H](C)c1cn([C@H](CO)Cc2ccccc2)nn1	0.0

###

Recorded measurements of composite z-score, one per entry
Tested on: Wnt5a (protein binding on small-molecule microarray)
Procedure Text: Wnt5a binders on small-molecule microarray, primary screen, biophysical, 635/667 nm fluorescence (AID 1142);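 note: fluorescence read at 667 nm with signal to noise per printed feature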
Experimental Conditions: 635 nm fluorescence, higher = more signal
Attribute Measured: composite z-score

CC(C)C(=O)N[C@H]1CCCN1C(=O)C=Cc1ccccc1	0.121
C[C@@H]1C=CCC(=O)OC[C@H](C)C(=O)N[C@@H](Cc2ccccc2)C(=O)OC1	0.033
CC(CCC(=O)OC[C@H]1O[C@H](C#Cc2ccccc2)C=C[C@@H]1Oc1ccc(C)cc1)=NOC(C)CN1CCCCc2nc(C)c(C)cc21 (some centres undefined)	-0.271
CCOC(=O)[C@H](Cc1ccccc1)NC(=O)CCC1CC(OC(=O)NCc2ccc3c(c2)OCO3)CC2(CCCC(COC(=O)NCCOC)O2)O1 (some centres undefined)	0.274
